- PROCEDURE SUMMARY: AUC in human at 100 to 200 mg, po TID after 8 hrs
- Assay type: ADME, organism-based
- DETAILS: in vivo

[
  {
    "COMPOUND": "Cc1ccc(C(=O)c2cc(O)c(O)c([N+](=O)[O-])c2)cc1 [TOLCAPONE]",
    "OUTPUT UNIT": "µM·h",
    "AUC at 8 h": 179
  }
]

----------
- PROCEDURE SUMMARY: AUC in human at 0.5 mg, po QD after 24 hrs
- Type: ADME, organism-based
- Design: time < 24 hr, dose 0.5 mg, route oral
- DETAILS: in vivo

[
  {
    "COMPOUND": "C[C@]12C=CC(=O)N[C@@H]1CC[C@@H]1[C@@H]2CC[C@]2(C)[C@@H](C(=O)Nc3cc(C(F)(F)F)ccc3C(F)(F)F)CC[C@@H]12 [DUTASTERIDE]",
    "OUTPUT UNIT": "µM·h",
    "AUC at 24 h": 0.078
  }
]

----------
- EXPERIMENTAL SYSTEM: ATP-binding cassette sub-family C member 3 (Homo sapiens)
- Sequence (O15438 whole entry): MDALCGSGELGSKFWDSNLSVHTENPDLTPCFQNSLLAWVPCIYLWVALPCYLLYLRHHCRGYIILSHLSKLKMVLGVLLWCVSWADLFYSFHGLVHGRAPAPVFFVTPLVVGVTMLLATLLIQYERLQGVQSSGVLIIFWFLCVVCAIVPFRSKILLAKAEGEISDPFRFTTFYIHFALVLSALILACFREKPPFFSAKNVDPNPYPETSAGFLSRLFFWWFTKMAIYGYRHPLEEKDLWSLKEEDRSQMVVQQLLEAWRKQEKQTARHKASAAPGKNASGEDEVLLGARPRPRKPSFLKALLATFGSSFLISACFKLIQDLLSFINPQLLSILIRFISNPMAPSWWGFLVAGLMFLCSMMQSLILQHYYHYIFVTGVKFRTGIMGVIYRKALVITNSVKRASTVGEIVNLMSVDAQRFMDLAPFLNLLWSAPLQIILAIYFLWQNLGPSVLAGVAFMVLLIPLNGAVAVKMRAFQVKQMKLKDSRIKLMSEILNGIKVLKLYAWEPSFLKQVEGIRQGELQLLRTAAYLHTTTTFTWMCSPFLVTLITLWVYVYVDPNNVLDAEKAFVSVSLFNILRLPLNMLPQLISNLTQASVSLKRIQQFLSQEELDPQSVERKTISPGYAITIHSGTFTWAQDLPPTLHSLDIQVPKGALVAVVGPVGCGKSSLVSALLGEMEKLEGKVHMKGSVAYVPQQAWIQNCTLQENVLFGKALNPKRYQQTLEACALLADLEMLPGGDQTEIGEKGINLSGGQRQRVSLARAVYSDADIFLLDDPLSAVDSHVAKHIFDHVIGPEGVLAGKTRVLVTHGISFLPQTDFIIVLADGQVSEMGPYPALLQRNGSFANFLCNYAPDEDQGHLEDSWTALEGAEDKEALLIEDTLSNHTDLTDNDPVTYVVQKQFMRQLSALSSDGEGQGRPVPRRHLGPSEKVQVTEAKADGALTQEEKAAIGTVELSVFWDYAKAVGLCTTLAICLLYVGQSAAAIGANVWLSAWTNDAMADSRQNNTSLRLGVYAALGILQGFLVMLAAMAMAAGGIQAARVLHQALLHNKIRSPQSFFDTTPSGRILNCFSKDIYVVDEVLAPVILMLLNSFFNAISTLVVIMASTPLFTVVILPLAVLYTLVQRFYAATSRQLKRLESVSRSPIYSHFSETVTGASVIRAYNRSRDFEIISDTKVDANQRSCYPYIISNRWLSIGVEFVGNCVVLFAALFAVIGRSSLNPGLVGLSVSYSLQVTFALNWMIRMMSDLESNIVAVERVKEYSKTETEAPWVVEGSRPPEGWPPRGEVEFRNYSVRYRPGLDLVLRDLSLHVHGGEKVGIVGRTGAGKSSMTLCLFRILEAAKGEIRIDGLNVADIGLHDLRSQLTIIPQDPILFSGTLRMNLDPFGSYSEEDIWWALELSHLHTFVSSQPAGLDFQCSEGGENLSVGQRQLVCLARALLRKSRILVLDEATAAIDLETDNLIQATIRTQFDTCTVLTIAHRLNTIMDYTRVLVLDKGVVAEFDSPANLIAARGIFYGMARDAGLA
- PROCEDURE SUMMARY: Inhibition of human MRP3 overexpressed in Sf9 insect cell membrane vesicles assessed as uptake of [3H]-estradiol-17beta-D-glucuronide in presence of ATP and GSH measured after 10 mins by membrane vesicle transport assay
Counter-ions that a name gives are not always drawn.

[
  {
    "MOLECULE": "CCCN(CCC)S(=O)(=O)c1ccc(C(=O)O)cc1",
    "EXPERIMENTAL SYSTEM": "ATP-binding cassette sub-family C member 3 (Homo sapiens)",
    "IC50": "> 133 µM"
  },
  {
    "MOLECULE": "NC[C@H]1O[C@H](O[C@H]2[C@H](O)[C@@H](O[C@H]3O[C@H](CO)[C@@H](O)[C@H](N)[C@H]3O)[C@H](N)C[C@@H]2N)[C@H](N)C[C@@H]1O",
    "EXPERIMENTAL SYSTEM": "ATP-binding cassette sub-family C member 3 (Homo sapiens)",
    "IC50": "> 133 µM"
  },
  {
    "MOLECULE": "c1cc(CN2CCCNCCNCCCNCC2)ccc1CN1CCCNCCNCCCNCC1",
    "EXPERIMENTAL SYSTEM": "ATP-binding cassette sub-family C member 3 (Homo sapiens)",
    "IC50": "> 133 µM"
  },
  {
    "MOLECULE": "O=C(O)CCC/C=C\\CC1C(O)CC(O)C1/C=C/C(O)COc1cccc(Cl)c1 (stereo not drawn) [CLOPROSTENOL SODIUM]",
    "EXPERIMENTAL SYSTEM": "ATP-binding cassette sub-family C member 3 (Homo sapiens)",
    "IC50": "> 133 µM"
  },
  {
    "MOLECULE": "CCCCCNC(=N)N/N=C/c1c[nH]c2ccc(OC)cc12 [TEGASEROD MALEATE]",
    "EXPERIMENTAL SYSTEM": "ATP-binding cassette sub-family C member 3 (Homo sapiens)",
    "IC50": "> 133 µM"
  },
  {
    "MOLECULE": "CN(C)CCC(c1ccc(Cl)cc1)c1ccccn1 (stereo not drawn)",
    "EXPERIMENTAL SYSTEM": "ATP-binding cassette sub-family C member 3 (Homo sapiens)",
    "IC50": "> 133 µM"
  },
  {
    "MOLECULE": "Cc1cn([C@@H]2C[C@@H](O)[C@H](CO)O2)c(=O)[nH]c1=O",
    "EXPERIMENTAL SYSTEM": "ATP-binding cassette sub-family C member 3 (Homo sapiens)",
    "IC50": "> 133 µM"
  },
  {
    "MOLECULE": "CCN(CC)CCCC(C)Nc1ccnc2cc(Cl)ccc12 (stereo not drawn)",
    "EXPERIMENTAL SYSTEM": "ATP-binding cassette sub-family C member 3 (Homo sapiens)",
    "IC50": "> 133 µM"
  },
  {
    "MOLECULE": "CC(C)C(=O)Nc1ccc([N+](=O)[O-])c(C(F)(F)F)c1 [FLUTAMIDE]",
    "EXPERIMENTAL SYSTEM": "ATP-binding cassette sub-family C member 3 (Homo sapiens)",
    "IC50": "> 133 µM"
  },
  {
    "MOLECULE": "CCc1nn(CCCN2CCN(c3cccc(Cl)c3)CC2)c(=O)n1CCOc1ccccc1",
    "EXPERIMENTAL SYSTEM": "ATP-binding cassette sub-family C member 3 (Homo sapiens)",
    "IC50": "> 133 µM"
  },
  {
    "MOLECULE": "Cn1c(=O)c2[nH]cnc2n(C)c1=O [AMINOPHYLLINE]",
    "EXPERIMENTAL SYSTEM": "ATP-binding cassette sub-family C member 3 (Homo sapiens)",
    "IC50": "> 133 µM"
  },
  {
    "MOLECULE": "O=c1c(O)c(-c2ccc(O)c(O)c2)oc2cc(O)cc(O)c12",
    "EXPERIMENTAL SYSTEM": "ATP-binding cassette sub-family C member 3 (Homo sapiens)",
    "IC50": "> 133 µM"
  },
  {
    "MOLECULE": "CCOC(=O)Nc1ccc(NCc2ccc(F)cc2)nc1N",
    "EXPERIMENTAL SYSTEM": "ATP-binding cassette sub-family C member 3 (Homo sapiens)",
    "IC50": "> 133 µM"
  },
  {
    "MOLECULE": "CCOc1ccc(NC(C)=O)cc1",
    "EXPERIMENTAL SYSTEM": "ATP-binding cassette sub-family C member 3 (Homo sapiens)",
    "IC50": "> 133 µM"
  },
  {
    "MOLECULE": "OC(Cn1cncn1)(Cn1cncn1)c1ccc(F)cc1F",
    "EXPERIMENTAL SYSTEM": "ATP-binding cassette sub-family C member 3 (Homo sapiens)",
    "IC50": "> 133 µM"
  },
  {
    "MOLECULE": "O=C(N[C@H](CO)[C@H](O)c1ccc([N+](=O)[O-])cc1)C(Cl)Cl",
    "EXPERIMENTAL SYSTEM": "ATP-binding cassette sub-family C member 3 (Homo sapiens)",
    "IC50": "> 133 µM"
  },
  {
    "MOLECULE": "CC1(C)O[C@@H]2[C@@H](CO[C@@]3(COS(N)(=O)=O)OC(C)(C)O[C@@H]23)O1 [TOPIRAMATE]",
    "EXPERIMENTAL SYSTEM": "ATP-binding cassette sub-family C member 3 (Homo sapiens)",
    "IC50": "> 133 µM"
  },
  {
    "MOLECULE": "CC(C)(C)C(=O)OCOP(=O)(COCCn1cnc2c(N)ncnc21)OCOC(=O)C(C)(C)C",
    "EXPERIMENTAL SYSTEM": "ATP-binding cassette sub-family C member 3 (Homo sapiens)",
    "IC50": "> 133 µM"
  },
  {
    "MOLECULE": "NC(=O)c1cnccn1 [PYRAZINAMIDE]",
    "EXPERIMENTAL SYSTEM": "ATP-binding cassette sub-family C member 3 (Homo sapiens)",
    "IC50": "> 133 µM"
  },
  {
    "MOLECULE": "O=S(=O)(O)CCS",
    "EXPERIMENTAL SYSTEM": "ATP-binding cassette sub-family C member 3 (Homo sapiens)",
    "IC50": "> 133 µM"
  },
  {
    "MOLECULE": "CCCc1nc2c(C)cc(-c3nc4ccccc4n3C)cc2n1Cc1ccc(-c2ccccc2C(=O)O)cc1",
    "EXPERIMENTAL SYSTEM": "ATP-binding cassette sub-family C member 3 (Homo sapiens)",
    "IC50": "60 µM"
  },
  {
    "MOLECULE": "C[C@H](CS)C(=O)N1CCC[C@H]1C(=O)O",
    "EXPERIMENTAL SYSTEM": "ATP-binding cassette sub-family C member 3 (Homo sapiens)",
    "IC50": "> 133 µM"
  },
  {
    "MOLECULE": "NCCCC[C@H](N[C@@H](CCc1ccccc1)C(=O)O)C(=O)N1CCC[C@H]1C(=O)O [LISINOPRIL ANHYDROUS]",
    "EXPERIMENTAL SYSTEM": "ATP-binding cassette sub-family C member 3 (Homo sapiens)",
    "IC50": "> 133 µM"
  },
  {
    "MOLECULE": "CCOc1cc(CC(=O)N[C@@H](CC(C)C)c2ccccc2N2CCCCC2)ccc1C(=O)O [REPAGLINIDE]",
    "EXPERIMENTAL SYSTEM": "ATP-binding cassette sub-family C member 3 (Homo sapiens)",
    "IC50": "16.7 µM"
  },
  {
    "MOLECULE": "COC[C@@H](NC(C)=O)C(=O)NCc1ccccc1 [LACOSAMIDE]",
    "EXPERIMENTAL SYSTEM": "ATP-binding cassette sub-family C member 3 (Homo sapiens)",
    "IC50": "> 133 µM"
  },
  {
    "MOLECULE": "CN/C(=N/CCSCc1nc[nH]c1C)NC#N",
    "EXPERIMENTAL SYSTEM": "ATP-binding cassette sub-family C member 3 (Homo sapiens)",
    "IC50": "> 133 µM"
  },
  {
    "MOLECULE": "Cc1cccc(Nc2ccccc2C(=O)O)c1C",
    "EXPERIMENTAL SYSTEM": "ATP-binding cassette sub-family C member 3 (Homo sapiens)",
    "IC50": "> 133 µM"
  },
  {
    "MOLECULE": "COc1ccc(/C=C/C(=O)Nc2ccccc2C(=O)O)cc1OC",
    "EXPERIMENTAL SYSTEM": "ATP-binding cassette sub-family C member 3 (Homo sapiens)",
    "IC50": "> 133 µM"
  },
  {
    "MOLECULE": "O=C1[C@H](CC[C@H](O)c2ccc(F)cc2)[C@@H](c2ccc(O)cc2)N1c1ccc(F)cc1",
    "EXPERIMENTAL SYSTEM": "ATP-binding cassette sub-family C member 3 (Homo sapiens)",
    "IC50": "> 133 µM"
  },
  {
    "MOLECULE": "CC[C@@H]([C@H](C)O)n1ncn(-c2ccc(N3CCN(c4ccc(OC[C@@H]5CO[C@@](Cn6cncn6)(c6ccc(F)cc6F)C5)cc4)CC3)cc2)c1=O",
    "EXPERIMENTAL SYSTEM": "ATP-binding cassette sub-family C member 3 (Homo sapiens)",
    "IC50": "> 133 µM"
  },
  {
    "MOLECULE": "COc1ccc(Cc2nccc3cc(OC)c(OC)cc23)cc1OC",
    "EXPERIMENTAL SYSTEM": "ATP-binding cassette sub-family C member 3 (Homo sapiens)",
    "IC50": "> 133 µM"
  },
  {
    "MOLECULE": "CC(=O)O.C[C@@H](O)[C@@H]1NC(=O)[C@H](CCCCN)NC(=O)[C@@H](Cc2c[nH]c3ccccc23)NC(=O)[C@H](Cc2ccccc2)NC(=O)[C@@H](NC(=O)[C@H](N)Cc2ccccc2)CSSC[C@@H](C(=O)N[C@H](CO)[C@@H](C)O)NC1=O [OCTREOTIDE ACETATE]",
    "EXPERIMENTAL SYSTEM": "ATP-binding cassette sub-family C member 3 (Homo sapiens)",
    "IC50": "> 133 µM"
  },
  {
    "MOLECULE": "CO[C@H]1/C=C/O[C@@]2(C)Oc3c(C)c(O)c4c(O)c(c(/C=N/N5CCN(C6CCCC6)CC5)c(O)c4c3C2=O)NC(=O)/C(C)=C\\C=C\\[C@H](C)[C@H](O)[C@@H](C)[C@@H](O)[C@@H](C)[C@H](OC(C)=O)[C@@H]1C",
    "EXPERIMENTAL SYSTEM": "ATP-binding cassette sub-family C member 3 (Homo sapiens)",
    "IC50": "80.9 µM"
  }
]

Measured values drawn from ChEMBL document CHEMBL4028801 for this set.
